METRIC: Ki (µM)
Report as a plain number; the unit µM is understood.

Query: State Ki on human 5HT1F receptor (Homo sapiens, UniProt P30939). Entry: O=C1C(=Nc2cccc(C(F)(F)F)c2)c2ccccc2N1c1ccccc1 [Example 92]
Sequence (P30939 whole entry): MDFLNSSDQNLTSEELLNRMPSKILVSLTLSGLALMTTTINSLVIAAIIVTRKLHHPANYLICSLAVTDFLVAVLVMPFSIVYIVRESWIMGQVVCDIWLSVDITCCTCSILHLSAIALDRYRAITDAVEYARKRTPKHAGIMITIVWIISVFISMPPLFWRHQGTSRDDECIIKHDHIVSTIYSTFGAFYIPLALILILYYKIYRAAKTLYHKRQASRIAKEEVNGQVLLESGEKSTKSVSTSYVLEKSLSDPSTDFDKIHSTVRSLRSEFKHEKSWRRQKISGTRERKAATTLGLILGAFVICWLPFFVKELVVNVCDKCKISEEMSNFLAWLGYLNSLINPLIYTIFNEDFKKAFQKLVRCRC
Reply: 5.29

###

# SYSTEM_UNDER_TEST: human 5HT4 receptor (Homo sapiens, UniProt Q13639)
# Sequence (Q13639 whole entry): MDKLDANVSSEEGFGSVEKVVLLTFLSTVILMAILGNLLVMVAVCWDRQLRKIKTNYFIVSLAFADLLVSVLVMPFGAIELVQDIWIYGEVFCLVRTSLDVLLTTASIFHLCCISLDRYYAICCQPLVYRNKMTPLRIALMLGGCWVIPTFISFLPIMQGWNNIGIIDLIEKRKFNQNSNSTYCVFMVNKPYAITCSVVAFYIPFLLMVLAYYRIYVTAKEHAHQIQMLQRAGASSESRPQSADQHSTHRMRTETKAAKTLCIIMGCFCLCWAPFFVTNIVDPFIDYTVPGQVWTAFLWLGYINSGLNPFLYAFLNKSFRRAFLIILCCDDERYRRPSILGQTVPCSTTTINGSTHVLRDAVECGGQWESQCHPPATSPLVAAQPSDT
METRIC: pKi
Worth noting: pKi values are minus log10 of concentrations stated in mol/L.

Query: Consider the molecule O=C1C(=Nc2cccc(C(F)(F)F)c2)c2ccccc2N1c1ccccc1 and give its recorded pKi.
Reply: 7.14

###

# SYSTEM_UNDER_TEST: human GAL3 receptor (Homo sapiens)
# Construct: expressed in transfected cells
# Sequence (O60755 1-368): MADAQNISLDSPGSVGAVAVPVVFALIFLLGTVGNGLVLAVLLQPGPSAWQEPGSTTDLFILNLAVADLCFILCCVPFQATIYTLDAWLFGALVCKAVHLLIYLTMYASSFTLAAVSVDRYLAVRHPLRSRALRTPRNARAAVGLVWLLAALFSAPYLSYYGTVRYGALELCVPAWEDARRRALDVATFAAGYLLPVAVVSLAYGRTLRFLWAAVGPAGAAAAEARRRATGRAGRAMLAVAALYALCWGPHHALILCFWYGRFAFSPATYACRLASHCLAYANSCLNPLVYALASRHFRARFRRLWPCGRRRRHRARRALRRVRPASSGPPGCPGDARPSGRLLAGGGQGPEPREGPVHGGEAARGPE
# ASSAY_REMARKS: Radioligand binding at cloned human GAL3 receptor
# CONDITION_DETAILS: Table 9; read-out: hGAL3 Ki
METRIC: pKi
pKi field: float, defined as -log10 of concentration (mol/L).

Query: Output measured pKi for this item: O=C1C(=Nc2cccc(C(F)(F)F)c2)c2ccccc2N1c1ccccc1 [Example 92]
Reply: 7.42
